- MEASURED_ON: T1, Human CD228 protein (human, UniProt P08582 20-708, limits assumed)
- T1 construct: Recombinant protein made in CHO cells, purified over a Ni column; The printed entry begins with the leader (MRGPSG...) and ends with ten His; also called hCD228; CD228-His protein
- T1 sequence: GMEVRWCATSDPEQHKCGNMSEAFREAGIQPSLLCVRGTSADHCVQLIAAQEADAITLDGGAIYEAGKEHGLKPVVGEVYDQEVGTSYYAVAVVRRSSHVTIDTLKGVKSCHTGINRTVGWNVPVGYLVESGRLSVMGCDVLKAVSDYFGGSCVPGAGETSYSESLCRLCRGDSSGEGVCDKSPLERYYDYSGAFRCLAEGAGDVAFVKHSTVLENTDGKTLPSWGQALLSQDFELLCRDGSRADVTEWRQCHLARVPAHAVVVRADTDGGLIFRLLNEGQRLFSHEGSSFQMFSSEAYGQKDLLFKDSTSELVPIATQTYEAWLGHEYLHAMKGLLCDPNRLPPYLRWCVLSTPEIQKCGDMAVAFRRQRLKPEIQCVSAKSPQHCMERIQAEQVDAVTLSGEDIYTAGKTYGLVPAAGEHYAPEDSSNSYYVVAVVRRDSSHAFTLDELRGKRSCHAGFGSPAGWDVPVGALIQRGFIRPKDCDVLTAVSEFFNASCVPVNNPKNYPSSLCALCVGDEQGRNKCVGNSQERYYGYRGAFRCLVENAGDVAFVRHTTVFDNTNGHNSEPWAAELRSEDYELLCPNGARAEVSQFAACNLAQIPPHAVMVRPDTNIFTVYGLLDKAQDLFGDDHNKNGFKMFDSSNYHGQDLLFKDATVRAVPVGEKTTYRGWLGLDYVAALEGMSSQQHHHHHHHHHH
- ASSAY_SUMMARY: Octet competition on His-chip CD228; competitor: CA67
Form field: competition (1-response value/blank value) (one value per entry).
All answers are understood in %, so give the number only.

Illustrative cases are given below, each with its answer.
| BINDER | REPORTED_RESULT |
| --- | --- |
| CA67 (antibody, human IgG1, kappa, V domains shown, Intact IgG1) VH: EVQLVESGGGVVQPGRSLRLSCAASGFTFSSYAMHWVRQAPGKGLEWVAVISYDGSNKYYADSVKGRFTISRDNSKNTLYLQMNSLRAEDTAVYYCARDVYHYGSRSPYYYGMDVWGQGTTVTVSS VL: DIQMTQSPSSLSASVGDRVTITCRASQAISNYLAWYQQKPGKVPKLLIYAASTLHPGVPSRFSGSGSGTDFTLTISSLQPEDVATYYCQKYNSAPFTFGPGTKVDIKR | 102 |
| CA518 (antibody, human IgG1, kappa, V domains shown, Intact IgG1) VH: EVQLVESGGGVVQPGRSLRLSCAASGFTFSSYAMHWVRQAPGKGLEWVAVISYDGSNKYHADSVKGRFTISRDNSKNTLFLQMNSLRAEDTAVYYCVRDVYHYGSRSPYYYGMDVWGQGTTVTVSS VL: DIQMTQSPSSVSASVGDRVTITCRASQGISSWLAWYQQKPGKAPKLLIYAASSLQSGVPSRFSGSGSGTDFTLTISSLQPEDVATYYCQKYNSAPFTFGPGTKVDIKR | 99 |
| BA352 (antibody, human IgG1, kappa, V domains shown, Intact IgG1) VH: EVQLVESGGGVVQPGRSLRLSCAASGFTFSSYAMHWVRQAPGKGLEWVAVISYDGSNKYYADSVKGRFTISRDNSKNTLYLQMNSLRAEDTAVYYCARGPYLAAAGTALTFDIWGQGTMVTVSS VL: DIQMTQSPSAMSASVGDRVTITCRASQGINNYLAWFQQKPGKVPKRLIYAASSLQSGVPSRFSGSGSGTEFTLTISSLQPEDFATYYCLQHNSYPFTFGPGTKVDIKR | -4 |

Asked: I'd like to know its competition (1-response value/blank value). The binder in question is CA149 (antibody, human IgG1, kappa, V domains shown, Intact IgG1; also called CA149 antibody) VH: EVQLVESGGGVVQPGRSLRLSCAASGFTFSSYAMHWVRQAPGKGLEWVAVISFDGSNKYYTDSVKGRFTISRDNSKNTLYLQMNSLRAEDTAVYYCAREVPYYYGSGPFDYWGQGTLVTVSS VL: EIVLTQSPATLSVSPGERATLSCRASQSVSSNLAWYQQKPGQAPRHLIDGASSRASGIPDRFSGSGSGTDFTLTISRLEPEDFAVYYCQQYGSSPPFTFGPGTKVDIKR
Given back: 98
